Biological target: T1, Myc-tagged NLRP6 (ΔPYD)
T1 chain: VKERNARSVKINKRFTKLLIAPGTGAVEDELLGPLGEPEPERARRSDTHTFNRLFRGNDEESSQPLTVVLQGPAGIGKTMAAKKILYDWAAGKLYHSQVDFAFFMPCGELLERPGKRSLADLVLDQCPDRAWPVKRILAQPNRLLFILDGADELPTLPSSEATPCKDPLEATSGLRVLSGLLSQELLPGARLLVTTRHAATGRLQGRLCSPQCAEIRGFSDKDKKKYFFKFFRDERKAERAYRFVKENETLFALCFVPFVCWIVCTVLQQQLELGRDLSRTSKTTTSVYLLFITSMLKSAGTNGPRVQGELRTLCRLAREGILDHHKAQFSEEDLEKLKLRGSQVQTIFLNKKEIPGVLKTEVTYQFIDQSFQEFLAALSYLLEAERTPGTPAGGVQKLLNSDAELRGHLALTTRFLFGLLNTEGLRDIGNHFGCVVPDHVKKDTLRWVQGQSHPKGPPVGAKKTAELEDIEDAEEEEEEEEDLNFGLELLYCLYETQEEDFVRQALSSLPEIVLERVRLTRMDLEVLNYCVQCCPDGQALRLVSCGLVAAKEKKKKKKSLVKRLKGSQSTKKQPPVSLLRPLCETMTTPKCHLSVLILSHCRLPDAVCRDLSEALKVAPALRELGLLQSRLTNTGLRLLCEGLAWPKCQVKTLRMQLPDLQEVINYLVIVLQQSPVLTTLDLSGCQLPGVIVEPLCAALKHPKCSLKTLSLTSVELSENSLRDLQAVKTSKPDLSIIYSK
pKd: −log10 of the molar value.

binder: FLAG-tagged iTie (natural protein) MGVFQILMKNKELIPLAFFISVAATGATSFALYALKKTDVVIDRKRNPEPWEMVDPTQPQKLITINQQWKPVEELQKVRRATR
pKd: 7.06

Data origin: paper doi:10.1101/2023.01.12.523719
